Entry source: patent US20260092061A1

- STUDY SYSTEM: BRD7 (Homo sapiens, UniProt Q9NPI1)
- Construct: HiBiT-BRD7 KI HEK293 (LgBiT) Cells (Promega CS3023410); host or cells: HEK293 (LgBiT), HiBiT knock-in at the BRD7 locus
- Sequence (Q9NPI1 1-651): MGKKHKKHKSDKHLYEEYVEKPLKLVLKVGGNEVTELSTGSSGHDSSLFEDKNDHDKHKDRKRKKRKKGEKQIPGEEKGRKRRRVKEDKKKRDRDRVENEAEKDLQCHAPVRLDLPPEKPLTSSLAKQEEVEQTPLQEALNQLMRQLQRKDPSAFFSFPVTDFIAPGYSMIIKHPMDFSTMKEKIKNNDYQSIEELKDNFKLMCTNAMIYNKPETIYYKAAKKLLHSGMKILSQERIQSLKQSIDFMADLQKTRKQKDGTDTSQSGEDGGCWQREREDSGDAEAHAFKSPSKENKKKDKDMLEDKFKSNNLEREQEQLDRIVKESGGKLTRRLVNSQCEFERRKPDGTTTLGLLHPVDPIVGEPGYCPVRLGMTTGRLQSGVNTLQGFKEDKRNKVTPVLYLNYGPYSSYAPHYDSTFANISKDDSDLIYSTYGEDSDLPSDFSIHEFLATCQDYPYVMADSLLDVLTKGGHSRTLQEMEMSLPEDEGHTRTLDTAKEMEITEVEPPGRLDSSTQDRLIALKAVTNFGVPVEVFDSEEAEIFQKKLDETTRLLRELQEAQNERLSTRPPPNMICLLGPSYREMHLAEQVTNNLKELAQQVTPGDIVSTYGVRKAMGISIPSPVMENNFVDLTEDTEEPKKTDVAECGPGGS
- ASSAY DETAILS: BRD7 degradation, HiBiT-BRD7 KI HEK293 (LgBiT) cells, NanoGlo Lytic Endpoint assay (Assay Protocol 1)
- Type: cell-based
- CONDITION: HEK293; Table 5; assay protocol 1
EXPERIMENTAL READOUT: Dmax

Query Dmax for COc1cc(-c2cn(C)c(=O)c(C)c2C)cc(OC)c1CN1CC2CC1CN2C(=O)/C(C#N)=C/C(C)(C)C (mixture of isomers) [BRD9b]
< 25%

Query Dmax for COc1cc(-c2cn(C)c(=O)c(C)c2C)cc(OC)c1CN(C)C1CCN(C(=O)/C(C#N)=C/C(C)(C)C)CC1 [BRD9d]
< 25%

Query Dmax for COc1cc(-c2cn(C)c(=O)c(C)c2C)cc(OC)c1CN1CCN(C(=O)/C(C#N)=C/C(C)(C)C)CC1 [BRD9a]
< 25%

Query Dmax for COc1cc(-c2cn(C)c(=O)c(C)c2C)cc(OC)c1CN(C)C(=O)/C(C#N)=C/C(C)(C)C [BRD9ac]
70 to 75%

Query Dmax for COc1cc(-c2cn(C)c(=O)c(C)c2C)cc(OC)c1CN1CCCN(C(=O)/C(C#N)=C/C(C)(C)C)CC1 [BRD9c]
< 25%

Query Dmax for COc1cc(-c2cn(C)c(=O)c(C)c2C)cc(OC)c1CN1CC2CC1CN2C(=O)/C(C#N)=C/c1nccs1 (mixture of isomers) [BRD9i]
25 to 40%

Query Dmax for COc1cc(-c2cn(C)c(=O)c(C)c2C)cc(OC)c1CN1CCN(C(=O)/C(C#N)=C/C(C)(C)C)C2(CC2)C1 [BRD9e]
< 25%

Query Dmax for COc1cc(-c2cn(C)c(=O)c(C)c2C)cc(OC)c1CN1C2CC1CN(C(=O)/C(C#N)=C/c1cccc(Br)n1)C2 (mixture of isomers) [BRD9o]
25 to 40%

Query Dmax for COc1cc(-c2cn(C)c(=O)c(C)c2C)cc(OC)c1CN1CCN(C(=O)/C(C#N)=C/c2cccc(Br)n2)CC1 [BRD9h]
25 to 40%
